# TARGET SYSTEM: SARS-COV-2 RBD extracellular domain expressed with a C-terminal myc-myc-hexahistidine tag (SARS-COV-2 RBD-mmH) (SARS-CoV-2)
# PROCEDURE DETAILS: SPR Biacore, mAb captured on anti-hFc, RBD-mmH analyte, 37 C
Entries and their measured t½ follow.
# do not omit the unit; it follows the number

As a guide, the following entries are already answered.
INSERT INTO assay_data (binder, reported_value) VALUES
  ('mAb14282 (antibody, V domains shown) VH: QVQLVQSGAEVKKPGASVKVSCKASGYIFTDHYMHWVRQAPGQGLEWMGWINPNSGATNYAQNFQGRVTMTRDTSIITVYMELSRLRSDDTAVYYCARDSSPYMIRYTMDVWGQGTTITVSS VL: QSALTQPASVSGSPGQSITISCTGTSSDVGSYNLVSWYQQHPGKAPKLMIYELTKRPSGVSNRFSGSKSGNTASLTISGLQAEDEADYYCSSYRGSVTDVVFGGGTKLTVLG', '1.1 min'),
  ('mAb13458 (antibody, V domains shown) VH: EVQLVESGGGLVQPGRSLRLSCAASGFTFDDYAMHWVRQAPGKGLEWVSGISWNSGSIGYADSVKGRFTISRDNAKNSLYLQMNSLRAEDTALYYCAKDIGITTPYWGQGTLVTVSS VL: AIQMTQSPSSLSASVGDRVTITCRASQDIRNDLGWYQQKPGKAPKLLIYSASSLQTGVPSRFSGSGSGTDFTLTISSLHPEDFATYYCLQDYWYTWTFGQGTKVEIKR', '8.3 min');

We next turn to a different binder, shown below.
t½ measured on mAb14230 (antibody, V domains shown) VH: EVQLVESGGGLIQPGRSLRLSCAASGFTFDDYAMHWVRQAPGKGLEWVSGISWNSVSIDYADSVKGRFTISRDNAKNSLYLQMTSLTVEDTALYYCAKAFGYETLTGSDYFAYWGPGTLVTVSS VL: EIVLTQSPGTLSLSPGERATLSCRASQTVISTYLAWYQQKPGQSPRLLIYGASSRATGIPDRFSGSGSGTDFTLTISRLEPEDFAVYYCQQYGSSPQLTFGGGTKVEIKR = 1.3 min
